assay: Equilibrium solubility evaluation in lipids and cosolvents; assay type: physicochemical; conditions: 37 °C, aqueous with cosolvent or surfactant or cyclodextrin, thermodynamic from solid; in Tween® 80; 37±0.5° C., 72 h; read-out: solubility of PTX
EXPERIMENTAL ENDPOINT: solubility at 72 h

{"columns": ["SUBSTANCE SMILES", "TEST VALUE"],
 "data": [
  ["CC(=O)O[C@H]1C(=O)[C@@]2(C)[C@H]([C@H](OC(=O)c3ccccc3)[C@]3(O)C[C@H](OC(=O)[C@H](O)[C@@H](NC(=O)c4ccccc4)c4ccccc4)C(C)=C1C3(C)C)[C@]1(OC(C)=O)CO[C@@H]1C[C@@H]2O", "78 mg/mL"]
]}
